- ASSAYED_TARGET: human TLR8 (Homo sapiens)
- Sequence (Q9NR97 27-1041): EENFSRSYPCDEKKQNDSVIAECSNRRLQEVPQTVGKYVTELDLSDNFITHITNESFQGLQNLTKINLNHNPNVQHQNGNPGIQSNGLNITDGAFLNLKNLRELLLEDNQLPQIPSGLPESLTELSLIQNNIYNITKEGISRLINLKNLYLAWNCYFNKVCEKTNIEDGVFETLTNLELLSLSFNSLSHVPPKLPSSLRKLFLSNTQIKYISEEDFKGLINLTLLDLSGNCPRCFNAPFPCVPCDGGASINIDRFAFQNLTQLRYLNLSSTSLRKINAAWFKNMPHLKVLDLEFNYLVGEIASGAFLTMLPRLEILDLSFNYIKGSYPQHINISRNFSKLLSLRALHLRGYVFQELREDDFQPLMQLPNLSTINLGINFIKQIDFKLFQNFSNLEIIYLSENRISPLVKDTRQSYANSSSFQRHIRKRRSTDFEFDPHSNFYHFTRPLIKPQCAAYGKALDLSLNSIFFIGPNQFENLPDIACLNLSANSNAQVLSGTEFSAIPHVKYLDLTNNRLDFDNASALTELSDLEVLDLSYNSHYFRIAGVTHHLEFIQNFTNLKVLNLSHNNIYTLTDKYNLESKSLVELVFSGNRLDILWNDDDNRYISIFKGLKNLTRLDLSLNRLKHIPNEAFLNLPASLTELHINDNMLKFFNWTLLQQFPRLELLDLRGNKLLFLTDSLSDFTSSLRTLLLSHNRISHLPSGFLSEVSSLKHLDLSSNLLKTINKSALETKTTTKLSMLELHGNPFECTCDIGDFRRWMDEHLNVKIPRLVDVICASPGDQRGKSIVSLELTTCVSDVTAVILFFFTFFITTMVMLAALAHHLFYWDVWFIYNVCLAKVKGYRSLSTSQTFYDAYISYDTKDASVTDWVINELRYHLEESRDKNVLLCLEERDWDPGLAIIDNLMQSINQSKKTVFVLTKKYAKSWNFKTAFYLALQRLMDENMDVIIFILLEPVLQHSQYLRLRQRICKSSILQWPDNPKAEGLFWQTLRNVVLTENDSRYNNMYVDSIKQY
- MEASUREMENT_PROTOCOL: HEK Reporter Assay, HEK293 NFKB reporter cells expressing human TLR8
- PROTOCOL_CONDITIONS: read-out: HEK293 hTLR8 EC50
pEC50: −log10 of the molar value.
MEASUREMENT_LABEL: pEC50

{"columns": ["COMPOUND", "ASSAYED_TARGET", "RESULT"],
 "data": [
  ["CCCN(CCCNC(=O)OC1CCC1)C(=O)C1=Cc2ccc(-c3ccc(CN)nc3)cc2N=C(N)C1 [HxBz-38]", "human TLR8 (Homo sapiens)", 6.82],
  ["CCCN(OCC)C(=O)C1=Cc2ccc(-c3ccc(C(=O)OC)nn3)cc2N=C(N)C1 [HxBz-6]", "human TLR8 (Homo sapiens)", 6.47],
  ["CCCN(OCC)C(=O)C1=Cc2ccc(-c3cnn(S(=O)(=O)N4CC(CN)C4)c3)cc2N=C(N)C1 [HxBz-9]", "human TLR8 (Homo sapiens)", 6.40],
  ["CCCN(OCC)C(=O)C1=Cc2ccc(-c3cncc(S(=O)(=O)N4CC(CN)C4)c3)cc2N=C(N)C1 [HxBz-7]", "human TLR8 (Homo sapiens)", 6.47],
  ["CCCN(OCC)C(=O)C1=Cc2ccc(-c3ccc(CN)nc3)cc2N=C(N)C1 [HxBz-36]", "human TLR8 (Homo sapiens)", 7.27],
  ["CCCN(OCC1COC(=O)N1)C(=O)C1=Cc2ccc(-c3cnc(CN)nc3)cc2N=C(N)C1 (stereo not drawn) [HxBz-46]", "human TLR8 (Homo sapiens)", 5.45],
  ["CCCN(OC(C)C)C(=O)C1=Cc2ccc(-c3cnc(CN)nc3)cc2N=C(N)C1 [HxBz-30]", "human TLR8 (Homo sapiens)", 7.40],
  ["CCCN(OCC)C(=O)C1=Cc2ccc(-c3cnc(C#N)nc3)cc2N=C(N)C1 [HxBz-1]", "human TLR8 (Homo sapiens)", 6.79],
  ["CCCN(OCCNC(=O)N(C)C)C(=O)C1=Cc2ccc(-c3cnc(CN)nc3)cc2N=C(N)C1 [HxBz-20]", "human TLR8 (Homo sapiens)", 5.43],
  ["CCCN(CCCNC(=O)OC(C)C)C(=O)C1=Cc2ccc(-c3cncc(S(=O)(=O)N4CC(CN)C4)c3)cc2N=C(N)C1 [HxBz-33]", "human TLR8 (Homo sapiens)", 5.54],
  ["CCCN(OCc1ccn[nH]1)C(=O)C1=Cc2ccc(-c3cnc(CN)nc3)cc2N=C(N)C1 [HxBz-41]", "human TLR8 (Homo sapiens)", 6.89],
  ["CCCN(OCCNC(=O)NCC)C(=O)C1=Cc2ccc(-c3cnc(CN)nc3)cc2N=C(N)C1 [HxBz-28]", "human TLR8 (Homo sapiens)", 5.53],
  ["CCCN(OCCO)C(=O)C1=Cc2ccc(-c3cnc(CN)nc3)cc2N=C(N)C1 [HxBz-22]", "human TLR8 (Homo sapiens)", 5.94],
  ["CCCN(CC1CNC(=O)O1)C(=O)C1=Cc2ccc(-c3cnc(CN)nc3)cc2N=C(N)C1 (stereo not drawn) [HxBz-25]", "human TLR8 (Homo sapiens)", 5.50],
  ["CCCN(OCCNC(=O)N1CCOCC1)C(=O)C1=Cc2ccc(-c3cnc(CN)nc3)cc2N=C(N)C1 [HxBz-23]", "human TLR8 (Homo sapiens)", 5.21],
  ["CCCN(OCCNC(=O)OC(C)C)C(=O)C1=Cc2ccc(-c3cncc(S(=O)(=O)N4CC(CN)C4)c3)cc2N=C(N)C1 [HxBz-35]", "human TLR8 (Homo sapiens)", 6.76],
  ["CCCN(CCCNC(=O)OC1CCC1)C(=O)C1=Cc2ccc(-c3cncc(CN)c3)cc2N=C(N)C1 [HxBz-40]", "human TLR8 (Homo sapiens)", 6.12],
  ["CCCN(OCC)C(=O)C1=Cc2ccc(-c3ncc(CN)cn3)cc2N=C(N)C1 [HxBz-10]", "human TLR8 (Homo sapiens)", 6.09],
  ["CCCN(C(=O)C1=Cc2ccc(-c3cnc(CN)nc3)cc2N=C(N)C1)[C@H]1C[C@H](NC(=O)OC2CCC2)C1 [HxBz-44]", "human TLR8 (Homo sapiens)", 5.20],
  ["CCCN(OCC)C(=O)C1=Cc2ccc(-c3cnc(CN)nc3)cc2N=C(N)C1 [HxBz-5]", "human TLR8 (Homo sapiens)", 7.77],
  ["CCCN(OCC)C(=O)C1=Cc2ccc(-c3cnc(N4CCNCC4)nc3)cc2N=C(N)C1 [HxBz-3]", "human TLR8 (Homo sapiens)", 7.37]
]}
